tested on: Wolbachia pipientis; assay: Anti-Wolbachia Cell-Based Screen; type: functional; set-up: scale not given: in the data most compounds retested in dose-response had high values; conditions: 5 µM
About 13,000 (27%) of roughly 48,000 compounds showed an effect of 50% or more. The list shows a part of the results.
quantity-name: Percent Effect (%)

molecule: COc1cccc(CC(=O)N2CCc3nc(C(N)=O)sc3CC2)c1
test-system: Wolbachia pipientis
quantity-name: Percent Effect
unit-of-measurement: %
observed-result: -1.696
--
molecule: Cc1c[nH]nc1C1CCCCN1C(=O)CNS(C)(=O)=O (centres undefined)
test-system: Wolbachia pipientis
quantity-name: Percent Effect
unit-of-measurement: %
observed-result: 91.22
--
molecule: CC1c2ncc(COCC3CCCC3)n2CCN1S(=O)(=O)N(C)C (centres undefined)
test-system: Wolbachia pipientis
quantity-name: Percent Effect
unit-of-measurement: %
observed-result: -21.16
--
molecule: CCN(C(=O)Cc1ccc(NC(=O)NC2CC2)cc1)c1ccccc1
test-system: Wolbachia pipientis
quantity-name: Percent Effect
unit-of-measurement: %
observed-result: -0.9902
--
molecule: Cc1n[nH]cc1CNC(=O)[C@H]1CCCCN1C(=O)OC(C)(C)C
test-system: Wolbachia pipientis
quantity-name: Percent Effect
unit-of-measurement: %
observed-result: -12.93
--
molecule: NC(=O)c1nc2c(s1)CCN(C(=O)Nc1cccc(Cl)c1)CC2
test-system: Wolbachia pipientis
quantity-name: Percent Effect
unit-of-measurement: %
observed-result: 103.6
--
molecule: Cc1c(NCc2ccc(C#N)cc2)cccc1S(=O)(=O)NC1CC1
test-system: Wolbachia pipientis
quantity-name: Percent Effect
unit-of-measurement: %
observed-result: -7.698
--
molecule: Cc1nc(-c2c(C)noc2C)cc(C2CCN(S(=O)(=O)N(C)C)CC2)n1
test-system: Wolbachia pipientis
quantity-name: Percent Effect
unit-of-measurement: %
observed-result: 103.8
--
molecule: COc1ccc(-c2ccc(C(=O)NS(C)(=O)=O)c(F)c2)c(F)c1
test-system: Wolbachia pipientis
quantity-name: Percent Effect
unit-of-measurement: %
observed-result: 2.644
--
molecule: CCN(CC)C(=O)c1nc2c(s1)CCN(C(=O)CCC(=O)OC)CC2
test-system: Wolbachia pipientis
quantity-name: Percent Effect
unit-of-measurement: %
observed-result: -10.26
--
molecule: O=C(Cc1ccon1)NC1CC2(CCC2)Oc2ccccc21 (centres undefined)
test-system: Wolbachia pipientis
quantity-name: Percent Effect
unit-of-measurement: %
observed-result: 0.8032
--
molecule: Cc1ccc(N2CCCC(NC(=O)CCc3ccccn3)C2=O)cc1 (centres undefined)
test-system: Wolbachia pipientis
quantity-name: Percent Effect
unit-of-measurement: %
observed-result: -0.6334
--
molecule: O=C(Nc1ccccc1)N1CCc2nc(C(=O)N3CCCC3)sc2CC1
test-system: Wolbachia pipientis
quantity-name: Percent Effect
unit-of-measurement: %
observed-result: 124.8
--
molecule: CCn1ccnc1CN1CCN(CCOc2cccc(C#N)c2)CC1
test-system: Wolbachia pipientis
quantity-name: Percent Effect
unit-of-measurement: %
observed-result: -6.749
--
molecule: Cc1noc(C)c1CN(C)Cc1csc(-c2ccccc2F)n1
test-system: Wolbachia pipientis
quantity-name: Percent Effect
unit-of-measurement: %
observed-result: 6.793
--
molecule: Cc1ccc(N2C[C@H]3OCC[C@H]3[C@H](C(=O)NCc3ccco3)C2)nn1
test-system: Wolbachia pipientis
quantity-name: Percent Effect
unit-of-measurement: %
observed-result: 0.2496
--
molecule: O=C(Nc1cccnc1)[C@H]1C[C@@H]2CCN(c3nncs3)C[C@H]2O1.O=C(O)C(F)(F)F.O=C(O)C(F)(F)F
test-system: Wolbachia pipientis
quantity-name: Percent Effect
unit-of-measurement: %
observed-result: 12.63
--
molecule: CCc1ncc2c(n1)CN(CC(=O)NC1CCCCNC1=O)CC2 (centres undefined)
test-system: Wolbachia pipientis
quantity-name: Percent Effect
unit-of-measurement: %
observed-result: -10.76
--
molecule: NC1(CN2CCCCC2)CCCCC1
test-system: Wolbachia pipientis
quantity-name: Percent Effect
unit-of-measurement: %
observed-result: 100.8
--
molecule: Cc1c[nH]nc1C1CCCCN1C(=O)Cn1cc(Cl)cn1 (centres undefined)
test-system: Wolbachia pipientis
quantity-name: Percent Effect
unit-of-measurement: %
observed-result: -1.424
--
molecule: CN(C)C(=O)CN1C(=O)CO[C@@H]2CN(c3ccccn3)C[C@H]21.O=C(O)C(F)(F)F
test-system: Wolbachia pipientis
quantity-name: Percent Effect
unit-of-measurement: %
observed-result: -2.034
--
molecule: CCOC(=O)N1[C@@H](c2ccco2)[C@@H](C(=O)O)C[C@]12CCCCNC2=O
test-system: Wolbachia pipientis
quantity-name: Percent Effect
unit-of-measurement: %
observed-result: 122.2
--
molecule: O=C(c1ccc(Cl)cc1)N1CCc2nc(C(=O)N3CCCC3)sc2CC1
test-system: Wolbachia pipientis
quantity-name: Percent Effect
unit-of-measurement: %
observed-result: 0.273
--
molecule: COCCNC(=O)c1nc(-c2cn(C)cn2)n2ccccc12
test-system: Wolbachia pipientis
quantity-name: Percent Effect
unit-of-measurement: %
observed-result: 37.4
--
molecule: Cc1c[nH]nc1C1CCCCN1C(=O)CC1(O)CCCCC1 (centres undefined)
test-system: Wolbachia pipientis
quantity-name: Percent Effect
unit-of-measurement: %
observed-result: 121.5
--
molecule: Cc1ccc(C(=O)N2CCC(C(F)(F)F)CC2)cc1N1CCNC1=O
test-system: Wolbachia pipientis
quantity-name: Percent Effect
unit-of-measurement: %
observed-result: 18.95
--
molecule: Cc1noc(C)c1-c1cccc(C2CN(S(=O)(=O)N(C)C)CCO2)n1 (centres undefined)
test-system: Wolbachia pipientis
quantity-name: Percent Effect
unit-of-measurement: %
observed-result: 137.9
--
molecule: Cc1nsc(NC(=O)NC2(CN3CCOCC3)CCCCC2)n1
test-system: Wolbachia pipientis
quantity-name: Percent Effect
unit-of-measurement: %
observed-result: 1.675
--
molecule: Cc1noc(C)c1-c1cccc(C2CN(CC(=O)N(C)C)CCO2)n1.O=CO (centres undefined)
test-system: Wolbachia pipientis
quantity-name: Percent Effect
unit-of-measurement: %
observed-result: 138.9
--
molecule: CN(C)C(=O)c1nc2c(s1)CCN(C(=O)c1ccc(Cl)cc1)CC2
test-system: Wolbachia pipientis
quantity-name: Percent Effect
unit-of-measurement: %
observed-result: -17.04
--
molecule: CS(=O)(=O)NCC(=O)N1CCCC1c1noc(C2CC2)n1 (centres undefined)
test-system: Wolbachia pipientis
quantity-name: Percent Effect
unit-of-measurement: %
observed-result: -4.288
--
molecule: CCS(=O)(=O)N1CCC(Nc2c(F)cc(C#N)cc2F)CC1
test-system: Wolbachia pipientis
quantity-name: Percent Effect
unit-of-measurement: %
observed-result: 12.27
--
molecule: COCCNC(=O)[C@H]1C[C@@H]2CCN(c3nncs3)C[C@H]2O1.O=C(O)C(F)(F)F
test-system: Wolbachia pipientis
quantity-name: Percent Effect
unit-of-measurement: %
observed-result: -6.597
--
molecule: NC(=O)c1nc2c(s1)CCN(C(=O)Nc1ccccc1)CC2
test-system: Wolbachia pipientis
quantity-name: Percent Effect
unit-of-measurement: %
observed-result: 118.3
--
molecule: Cc1ccc(N2CC[C@H]3C[C@H](C(=O)NCc4ccco4)O[C@H]3C2)nn1.O=C(O)C(F)(F)F
test-system: Wolbachia pipientis
quantity-name: Percent Effect
unit-of-measurement: %
observed-result: 108.4
--
molecule: Cc1cc(Cl)cc(C)c1CNC1CCN(CC(=O)N(C)C)CC1
test-system: Wolbachia pipientis
quantity-name: Percent Effect
unit-of-measurement: %
observed-result: -21.25
--
molecule: CNC(=O)c1nc2c(s1)CCN(C(=O)c1ccccc1)CC2
test-system: Wolbachia pipientis
quantity-name: Percent Effect
unit-of-measurement: %
observed-result: -10.92
--
molecule: NC1(CN2CCOCC2)CCCCC1
test-system: Wolbachia pipientis
quantity-name: Percent Effect
unit-of-measurement: %
observed-result: 80.74
--
molecule: COc1ccc(OC)c(C(C)NC(=O)Nc2nnc(C)s2)c1 (centres undefined)
test-system: Wolbachia pipientis
quantity-name: Percent Effect
unit-of-measurement: %
observed-result: -19.71
--
molecule: CNC(=O)N1CCc2nc(C(=O)Nc3cccnc3)sc2CC1
test-system: Wolbachia pipientis
quantity-name: Percent Effect
unit-of-measurement: %
observed-result: -5.762
--
molecule: CCc1n[nH]c(C2CN(CC(=O)N(C)Cc3ccco3)CCO2)n1 (centres undefined)
test-system: Wolbachia pipientis
quantity-name: Percent Effect
unit-of-measurement: %
observed-result: -22.35
--
molecule: Cc1cc(NCCCNS(C)(=O)=O)nc2ccccc12
test-system: Wolbachia pipientis
quantity-name: Percent Effect
unit-of-measurement: %
observed-result: -15.92
--
molecule: Cc1noc(C[C@@H]2COC[C@H]3CN(S(=O)(=O)C4CC4)C[C@@H]23)n1
test-system: Wolbachia pipientis
quantity-name: Percent Effect
unit-of-measurement: %
observed-result: 6.683
--
molecule: CCN(CC)C(=O)c1nc2c(s1)CCN(Cc1cccc(OC)c1)CC2.O=C(O)C(F)(F)F
test-system: Wolbachia pipientis
quantity-name: Percent Effect
unit-of-measurement: %
observed-result: -1.01
